test: NCI Yeast Anticancer Drug Screen. Data for the bub3 strain (AID 167); settings: S. cerevisiae bub3 mutant strain, at 50.0 µM, active compounds read high
Compounds without any hit were thinned out: in the full panel of roughly 79,000, 15% have a hit.
PROPERTY: growth inhibition (%)
Form entry: value (%) — number only.

# MOLECULE, growth inhibition (%)
records = [
    ("Cc1c2cc[n+](C)cc2c(C)c2c1[nH]c1ccc(Cl)cc12", 91.6),
]

**Q:** Please give measured growth inhibition of the following entry: NCCC(N)P(=O)(O)O (configuration not stated)
**A:** 13

**Q:** Read the entry O=S1(=O)C(Br)=Cc2ccccc21 and write its reported growth inhibition.
**A:** 99.4

**Q:** Indicate the recorded growth inhibition value for this molecule: CN(C)Cc1cc(N=Nc2ccc(Cl)c(Cl)c2)ccc1O
**A:** 88.5

**Q:** Determine its reported growth inhibition: Nc1cc(Cl)ccc1S
**A:** 99.3

**Q:** Answer with the recorded growth inhibition of CC(CC=NCCN=CCC(C)CC(C)(C)C)CC(C)(C)C (configuration not stated) only.
**A:** 96.3

**Q:** Return growth inhibition for the following molecule: CC(=O)Oc1ccc2cc(-c3ccccc3OC(C)=O)c(=O)oc2c1
**A:** 57.8

**Q:** Give the reported growth inhibition for this molecule. CCCCCCCCCc1ccc(OCC(O)CO)cc1 (configuration not stated)
**A:** 99.8

**Q:** State, in one line, measured growth inhibition of Cc1c(O)c(Br)c(Br)c(Br)c1Br
**A:** 93

**Q:** Query growth inhibition for CCC[CH2][Sn]([CH2]CCC)([O]N(C)C(=O)c1ccc(Br)cc1)[O]N(C)C(=O)c1ccc(Br)cc1
**A:** 90.7

**Q:** Determine its reported growth inhibition: CC(CCl)OC(=O)Nc1cccc(C(F)(F)F)c1 (configuration not stated)
**A:** 74.8

**Q:** Quick one: give measured growth inhibition for O=C(c1ccccc1)N(C(=S)N(C(=O)c1ccccc1)c1ccccc1)c1ccccc1
**A:** 99
